B1: CCDC6 (parent)
chain: TLFKKIQALQKEKETLAVNYEKEE

Variants of: B1
assay_remarks: protein stability index of a GFP-peptide fusion (GPS, HEK-293T) (PSI 1-6); higher = more stable;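 also: lentivirally expressed fusions sorted by FACS into six bins by GFP to DsRed ratio, PSI derived from sequencing read proportions per bin multiplied by bin number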
condition_description: c terminus: a fixed tail appended
Reported protein stability index values are given for each entry in this list.
outcome_measure: protein stability index

INSERT INTO results (alteration, outcome_measure, result_number) VALUES
  ('K4A', 'protein stability index', 3.01),
  ('L2M', 'protein stability index', 4.28),
  ('A17G', 'protein stability index', 3.1),
  ('K4R', 'protein stability index', 3.35),
  ('E21V', 'protein stability index', 2.52),
  ('K22W', 'protein stability index', 2.48),
  ('E14G', 'protein stability index', 3.1),
  ('E23D', 'protein stability index', 3.32),
  ('T1G', 'protein stability index', 3.73),
  ('Y20Q', 'protein stability index', 4.34),
  ('K13I', 'protein stability index', 2.2),
  ('Q7G', 'protein stability index', 3.51),
  ('K11H', 'protein stability index', 3.28),
  ('I6P', 'protein stability index', 4.78),
  ('A8L', 'protein stability index', 3.4),
  ('E24S', 'protein stability index', 2.77),
  ('K11N', 'protein stability index', 3.55),
  ('Y20E', 'protein stability index', 4.32),
  ('E23Q', 'protein stability index', 2.63),
  ('T1E', 'protein stability index', 3.67),
  ('Y20F', 'protein stability index', 3.06),
  ('E12Q', 'protein stability index', 2.64);
